Biological target: T1, PKC-δ (purified isoform)
T1 construct: also called PKC-delta
T1 sequence (Q05655 whole entry, stated change not applied, canonical isoform): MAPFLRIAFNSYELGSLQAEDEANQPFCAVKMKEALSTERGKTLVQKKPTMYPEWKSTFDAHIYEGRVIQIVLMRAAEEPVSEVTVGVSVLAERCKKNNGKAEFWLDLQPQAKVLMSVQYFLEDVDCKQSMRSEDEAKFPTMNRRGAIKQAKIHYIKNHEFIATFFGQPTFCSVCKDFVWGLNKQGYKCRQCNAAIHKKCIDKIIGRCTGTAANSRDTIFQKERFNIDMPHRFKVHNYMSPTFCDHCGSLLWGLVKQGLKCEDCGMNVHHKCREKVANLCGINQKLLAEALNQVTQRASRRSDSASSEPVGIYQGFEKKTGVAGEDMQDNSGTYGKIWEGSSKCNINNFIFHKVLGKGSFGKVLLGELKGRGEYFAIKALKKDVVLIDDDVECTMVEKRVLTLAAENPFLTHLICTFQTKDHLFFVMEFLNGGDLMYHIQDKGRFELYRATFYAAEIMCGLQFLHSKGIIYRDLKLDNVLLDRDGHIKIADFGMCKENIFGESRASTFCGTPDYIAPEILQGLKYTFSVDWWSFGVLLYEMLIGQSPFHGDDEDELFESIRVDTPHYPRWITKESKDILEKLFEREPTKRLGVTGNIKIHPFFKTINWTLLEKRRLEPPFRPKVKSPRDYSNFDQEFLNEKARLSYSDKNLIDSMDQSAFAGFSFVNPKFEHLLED
Assay: competitive ELISA, coated purified PKC-δ, vs anti-PKC δ (SC-213); PRE 100 µM
PROPERTY: relative binding capacity (100-%n, DMSO subtracted) (%)

[
  {
    "BINDER": "Ac-KDAQNLI-NH2 (Ac-KDAQNLI-NH2; also called peptide PRE 12) [PRE 12]",
    "UNIT TAG": "%",
    "VALUE OBSERVED": 1.02
  },
  {
    "BINDER": "Ac-RDAQNLI-NH2 (Ac-RDAQNLI-NH2; also called peptide PRE 13) [PRE 13]",
    "UNIT TAG": "%",
    "VALUE OBSERVED": 0.79
  },
  {
    "BINDER": "Ac-ISIGILNQADK-NH2 (also called peptide PRE 10) [PRE 10]",
    "UNIT TAG": "%",
    "VALUE OBSERVED": 0
  },
  {
    "BINDER": "RRKKGGKDFVVKR (also called peptide PRE 1; peptide recognition element 1) [PRE 1]",
    "UNIT TAG": "%",
    "VALUE OBSERVED": 45.2
  },
  {
    "BINDER": "Ac-KDANQLIGISI-NH2 (also called peptide PRE 6) [PRE 6]",
    "UNIT TAG": "%",
    "VALUE OBSERVED": 13.2
  },
  {
    "BINDER": "Ac-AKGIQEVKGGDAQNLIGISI-NH2 (also called peptide PRE 3) [PRE 3]",
    "UNIT TAG": "%",
    "VALUE OBSERVED": 56
  },
  {
    "BINDER": "Ac-RDAQNLIGISI-NH2 (also called peptide PRE 11) [PRE 11]",
    "UNIT TAG": "%",
    "VALUE OBSERVED": 21.5
  }
]
